study_target: PanK3 (Homo sapiens, UniProt Q9H999)
method_description: PanK3 radiochemical
Assay type: biochemical
assay_context: % of maximal activation of PanK3 with respect to the DMSO control, radioactive assay
readout_name: % Activation RA (%)
Output spec: scalar in %, unitless text.

query: // lookup % Activation RA for "CCCCCCCC/C=C\CCCCCCCC(=O)O[C@H](CC(=O)[O-])C[N+](C)(C)C"
result: 140

Further cases:
query: // lookup % Activation RA for "O=C1C=CC(=O)c2ccccc21"
result: 0

query: // lookup % Activation RA for "CC/C(=C(\c1ccccc1)c1ccc(OCCN(C)C)cc1)c1ccccc1"
result: 140

query: // lookup % Activation RA for CCCCCCCCCCCCCCCC(=O)OC(CC(=O)[O-])C[N+](C)(C)C (centres unmarked)
result: 120

query: // lookup % Activation RA for CCCCCCCC/C=C\CCCCCCCC(=O)NCCO [Oleoylethanolamide]
result: 120

###

study_target: PanK3(A267F) (Homo sapiens, UniProt Q9H999, A267F)
Sequence (Q9H999 1-370 A267F): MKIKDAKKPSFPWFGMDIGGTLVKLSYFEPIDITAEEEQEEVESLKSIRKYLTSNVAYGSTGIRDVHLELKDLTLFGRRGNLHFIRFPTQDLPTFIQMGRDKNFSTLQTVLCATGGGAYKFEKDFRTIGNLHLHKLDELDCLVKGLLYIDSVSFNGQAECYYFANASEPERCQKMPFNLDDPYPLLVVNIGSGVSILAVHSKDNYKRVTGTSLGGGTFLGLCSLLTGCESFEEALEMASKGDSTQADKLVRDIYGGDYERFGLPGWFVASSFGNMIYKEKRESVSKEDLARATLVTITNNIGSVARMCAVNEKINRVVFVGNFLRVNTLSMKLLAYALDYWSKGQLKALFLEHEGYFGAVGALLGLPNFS
method_description: TNP-ATP binding to PanK3
readout_name: Kd (µM)
Output spec: scalar in µM, unitless text.

query: // lookup Kd for Nc1ncnc2c1ncn2[C@@H]1O[C@H](COP(=O)(O)OP(=O)(O)OP(=O)(O)O)[C@H]2OC3(O[C@H]21)C([N+](=O)[O-])=CC(=[N+]([O-])[O-])C=C3[N+](=O)[O-] (stereo partly shown)
result: 3.1

###

study_target: PanK3 (Homo sapiens, UniProt Q9H999)
method_description: PanK3 radiochemical
Format: biochemical
assay_context: radiochemical assay, 100 µM compound
readout_name: PanK3 inhibition by steroids

query: Request - read-out PanK3 inhibition by steroids | tested on PanK3 (Homo sapiens, UniProt Q9H999) | compound "CC(=O)[C@H]1CC[C@H]2[C@@H]3CC=C4C[C@@H](O)CC[C@]4(C)[C@H]3CC[C@]12C"
result: weak PanK3 inhibitors

query: Request - read-out PanK3 inhibition by steroids | tested on PanK3 (Homo sapiens, UniProt Q9H999) | compound "CC(C)CCC[C@@H](C)[C@H]1CC[C@H]2[C@@H]3CC=C4C[C@@H](O)CC[C@]4(C)[C@H]3CC[C@]12C"
result: weak PanK3 inhibitors

###

Property: pEC50; scope: individual molecules
study_target: PanK3 (Homo sapiens)
method_description: PanK3 high-throughput screen, two-step luminescence
Format: biochemical
Bear in mind: pEC50 is minus log10 of a mol/L concentration; give just that figure.

query: // lookup pEC50 for CCCCCCCC/C=C\CCCCCCCC(=O)NCCO [Oleoylethanolamide]
result: 5.10

# context switch: different molecule, same pEC50
query: // lookup pEC50 for CC/C(=C(\c1ccccc1)c1ccc(OCCN(C)C)cc1)c1ccccc1 [Tamoxifen]
result: 5.47

###

study_target: PanK3 (Homo sapiens, UniProt Q9H999)
method_description: PanK3 radiochemical
Type: biochemical
Property: pEC50; scope: individual compounds
Bear in mind: pEC50 is minus log10 of a mol/L concentration; give just that figure.

query: // lookup pEC50 for CCCCCCCCCCCCCCCC(=O)OC(CC(=O)[O-])C[N+](C)(C)C (stereo not drawn)
result: 5.80

query: // lookup pEC50 for "CC/C(=C(\c1ccccc1)c1ccc(OCCN(C)C)cc1)c1ccccc1"
result: 5.40

# context switch: different compound, same pEC50
query: // lookup pEC50 for CCCCCCCC/C=C\CCCCCCCC(=O)NCCO [Oleoylethanolamide]
result: 6.30

###

study_target: PanK3(R207A) (Homo sapiens, UniProt Q9H999, R207A)
Sequence (Q9H999 1-370 R207A): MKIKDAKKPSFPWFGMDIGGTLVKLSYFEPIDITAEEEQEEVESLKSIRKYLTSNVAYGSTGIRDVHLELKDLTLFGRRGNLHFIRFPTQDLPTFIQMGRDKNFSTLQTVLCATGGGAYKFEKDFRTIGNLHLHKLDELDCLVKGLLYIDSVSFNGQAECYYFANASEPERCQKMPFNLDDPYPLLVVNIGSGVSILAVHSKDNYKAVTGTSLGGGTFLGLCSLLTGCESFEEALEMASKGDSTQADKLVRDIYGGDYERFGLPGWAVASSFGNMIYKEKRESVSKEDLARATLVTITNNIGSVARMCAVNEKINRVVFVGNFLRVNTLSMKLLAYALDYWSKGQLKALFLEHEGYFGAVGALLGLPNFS
method_description: TNP-ATP binding to PanK3
readout_name: Kd (µM)
Output spec: scalar in µM, unitless text.

query: // lookup Kd for Nc1ncnc2c1ncn2[C@@H]1O[C@H](COP(=O)(O)OP(=O)(O)OP(=O)(O)O)[C@H]2OC3(O[C@H]21)C([N+](=O)[O-])=CC(=[N+]([O-])[O-])C=C3[N+](=O)[O-] (stereo partly shown) [TNP-ATP]
result: 3

###

Property: pIC50; scope: individual compounds
study_target: PanK3 (Homo sapiens, UniProt Q9H999)
method_description: PanK3 high-throughput screen, two-step luminescence
Format: biochemical
assay_context: HTS platform, 10-point concentration series in triplicate, rounded to nearest 0.1 µM
Counter-ions that a name gives are not always drawn.
Bear in mind: pIC50 is minus log10 of a mol/L concentration; give just that figure.

Reference set, count: 3
query: // lookup pIC50 for O=C1Nc2ccc(I)cc2/C1=C/c1cc(Br)c(O)c(Br)c1 [GW5074]
result: 5.04

query: // lookup pIC50 for N=C(N)SCCc1ccc(CCSC(=N)N)cc1 [1,4-PBIT dihydrobromide]
result: 6.40

query: // lookup pIC50 for O=C(c1cc(O)c(O)c([N+](=O)[O-])c1)c1ccccc1F [Ro 41-0960]
result: 5.41

Further cases:
query: // lookup pIC50 for N#C/C(=C\c1ccc(O)c(O)c1)C(=O)N1CCc2ccccc21 [Tyrphostin AG 528]
result: 5.52

query: // lookup pIC50 for C#C[C@]1(O)CC[C@H]2[C@@H]3CCC4=Cc5nc6nc7ccccc7n6cc5C[C@]4(C)[C@H]3CC[C@@]21C [WIN 62577]
result: 6.15

###

study_target: PanK3(A269F) (Homo sapiens, UniProt Q9H999, A269F)
method_description: TNP-ATP binding to PanK3
readout_name: pKd
Bear in mind: pKd is minus log10 of a mol/L concentration; give just that figure.

query: // lookup pKd for Nc1ncnc2c1ncn2[C@@H]1O[C@H](COP(=O)(O)OP(=O)(O)OP(=O)(O)O)[C@H]2OC3(O[C@H]21)C([N+](=O)[O-])=CC(=[N+]([O-])[O-])C=C3[N+](=O)[O-] (stereo partly shown)
result: 5.27

###

study_target: PanK3 (Homo sapiens, UniProt Q9H999)
method_description: PanK3 radiochemical
Assay type: biochemical
Property: pIC50; scope: individual compounds
Bear in mind: pIC50 is minus log10 of a mol/L concentration; give just that figure.

query: // lookup pIC50 for COc1ccc(Cl)cc1C(=O)NCCc1ccc(S(=O)(=O)NC(=O)NC2CCCCC2)cc1 [Glyburide]
result: 5.07

# context switch: different compound, same pIC50
query: // lookup pIC50 for Cc1cnc(C(=O)NCCc2ccc(S(=O)(=O)NC(=O)NC3CCCCC3)cc2)cn1 [Glipizide]
result: 5.07

###

Property: IC50; scope: individual compounds
study_target: UniProtKB Q9H999
method_description: PanK3 radiochemical
Assay type: biochemical

Reference set, count: 2
query: // lookup IC50 for CC(C)[C@H]1CC[C@H](C(=O)N[C@H](Cc2ccccc2)C(=O)O)CC1 [nateglinide]
result: > 100 µM

query: // lookup IC50 for "CCOc1cc(CC(=O)N[C@@H](CC(C)C)c2ccccc2N2CCCCC2)ccc1C(=O)O"
result: > 100 µM

Further cases:
query: // lookup IC50 for "Cc1cc(SCc2sc(-c3ccc(C(F)(F)F)cc3)nc2C)ccc1OCC(=O)O"
result: ~100 µM
